Data origin: PubChem BioAssay (NCI)

# System: MDA-MB-435
# protocolDescription: NCI tumour cell line growth inhibition, 48 h
*1 amine or outer side, *2 acyl side, *3 side chain or, on linkers, in order; H or OH if unused. Where a SMILES comes first, the peptide text is derived from it. [ ]: non-standard residue; d: D form. The star is where a group is joined. X31 = CC(=O)N(C)SCC(N[*:1])C(=O)[*:2]; Fmoc = O=C(OCC1c2ccccc2-c2ccccc21)*; For = O=C*
measuredParameter: TGI

molecule	observedValue
COc1ccc2c(c1OC)C(=O)O[C@@H]2[C@H]1c2c(c(Br)c3c(c2OC)OCO3)CCN1C	29.6 µM
CC(=O)N(C)SCC(NC(=O)C(Cc1ccccc1)NC(=O)OCC1c2ccccc2-c2ccccc21)C(=O)NC(Cc1ccccc1)C(=O)NC(Cc1cn(C=O)c2ccccc12)C(=O)NC(CCCCNC(=O)OCC1c2ccccc2-c2ccccc21)C(=O)NC(C(=O)NC(CSN(C)C(C)=O)C(=O)NC(C(N)=O)C(C)O)C(C)O (stereo not given) (Fmoc-F[X31]FW(For)K(Fmoc)T[X31]T-NH2; configuration not given here)	> 100 µM
CN(CCCN(C)CCC1CCCCC1)CCC1CCCCC1	2.27 µM
CCCCCCC(=O)OC[n+]1cccc(-c2c(COC(=O)NC(C)C)c(COC(=O)NC(C)C)c3n2CCC3)c1	> 100 µM
COc1cc(C2S/C(=C/c3ccccc3)C(=O)N2c2ccccc2Cl)cc(OC)c1OC (stereo not given)	56.7 µM
COC(=O)C1(C)OC(C)=NC1(C(=O)OC)C(=O)OC (stereo not given)	> 100 µM
C/C(=N\NC(=S)Nc1ccc(Cl)cc1)c1nc2ncccc2[nH]1	15.1 µM
COC1C(O)C(C)OC(O[C@@H]2C[C@H]3CC[C@@H]4[C@H](CC[C@]5(C)[C@@H](C6=CC(=O)OC6)CC[C@]45O)[C@@]3(C)[C@H](O)C2)C1O (stereo not given in full)	0.379 µM
COC(=O)C1=NN2c3ccccc3CN([C@@H](C)c3ccccc3)C(=O)[C@H]2[C@@H]1C	> 100 µM
Oc1ccccc1-n1nc2ccc3nonc3c2n1	> 100 µM
O=c1c(Sc2ncccn2)c(Sc2ncccn2)cnn1CCl	3.87 µM
C=C(CC)C[C@@H]1C[C@]2(C(=O)OC)c3[nH]c4ccccc4c3CCN2C1=O	43.7 µM
Cc1cn(Cc2ccccc2CCl)c(=O)n(Cc2ccccc2CCl)c1=O	4.07 µM
O=C(O)CCc1nc2cc3ccccc3cc2[nH]c1=O	> 100 µM
CC1=C(C(=O)NC(C)(C)C)CC(C(=O)NC(C)(C)C)C(C)N1 (stereo not given)	> 100 µM
Oc1ccc(Cn2c(-c3ccc(O)cc3)nc3ccccc32)cc1	> 100 µM
O=[N+]([O-])c1ccc2[nH]c(O)c(N=NC(=S)Nc3ccccc3)c2c1	26.9 µM
CCOC(=O)c1ccc(Nc2cnc3ccc(C(F)(F)F)cc3n2)cc1	61.8 µM
NS(=O)(=O)c1ccc(N2N=C(c3cccs3)CC2c2ccccc2O)cc1 (stereo not given)	1.8 µM
CC(C)=CCc1cc(C2COc3cc4c(c(O)c3C2=O)C=CC(C)(C)O4)c(O)cc1O (stereo not given)	33.4 µM
COC1C(OC(N)=O)C(O)C(Oc2ccc3c(O)c(NC(=O)c4ccc(O)c(CC=C(C)C)c4)c(=O)oc3c2C)OC1(C)C (stereo not given)	> 100 µM
O=CN1N=C(c2ccc(Nc3ccnc4cc(Cl)ccc34)cc2)CC1c1ccc(Cl)cc1 (stereo not given)	0.48 µM
Nc1ccccc1C#C/C=C\C#Cc1ccccc1F	4.44 µM
CC(C)OP(=O)(OC(C)C)C(Nc1cccc(C(F)(F)F)c1)c1ccccc1 (stereo not given)	> 100 µM
S=C(Nc1cccc(C2(N3CCCCC3)CCCCC2)c1)Nc1cccc(C2(N3CCCCC3)CCCCC2)c1	30.6 µM
C=CCC1C2CCC(O[Si](C(C)C)(C(C)C)C(C)C)(C(C(=O)OC)C2)C1O (stereo not given)	> 100 µM
CC1=NN(C(=O)c2nn(-c3ccc(Cl)cc3)cc2O)C(=O)C1	> 100 µM
CC(C)(CN)SCc1ccccc1	> 100 µM
CCOC(=O)c1c(NC(=O)c2ccc(Br)cc2)sc2c1CCCC2	> 100 µM
Nc1cc(-c2ccccc2)n(C(=O)Nc2ccc(Oc3ccccc3)cc2)n1	> 100 µM
CN(C)C(=O)Oc1ccc(C(=S)Nc2ccccc2)cc1Br	43.9 µM
C[N+]12CCCCC1C(CN1C(=O)c3ccccc3C1=O)CCC2 (stereo not given)	> 100 µM
CCCC(CCC)C(=O)OCC1(CO)C/C(=C\c2ccc(C(F)(F)F)cc2)C(=O)O1 (stereo not given)	19.3 µM
CSc1nc(-c2ccc(Cl)cc2)c(C#N)c(=O)[nH]1	> 100 µM
Cn1c2ccccc2c2[nH]c3ccccc3c(=O)c21	> 100 µM
